# TEST_SYSTEM: human D4.2 receptor (Homo sapiens, UniProt P21917, DEL265-296)
# Sequence (P21917 with tags, fused parts or gaps DEL265-296): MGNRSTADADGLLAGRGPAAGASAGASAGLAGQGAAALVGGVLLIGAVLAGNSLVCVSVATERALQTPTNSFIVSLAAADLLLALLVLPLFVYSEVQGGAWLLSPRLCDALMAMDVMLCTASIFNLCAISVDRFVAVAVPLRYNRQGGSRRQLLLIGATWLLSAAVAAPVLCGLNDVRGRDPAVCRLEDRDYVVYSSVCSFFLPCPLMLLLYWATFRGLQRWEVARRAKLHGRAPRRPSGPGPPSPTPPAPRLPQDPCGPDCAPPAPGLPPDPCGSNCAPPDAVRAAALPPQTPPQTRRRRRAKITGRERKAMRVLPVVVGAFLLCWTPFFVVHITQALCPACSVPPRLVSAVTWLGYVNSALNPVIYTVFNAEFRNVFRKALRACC
# ASSAY_REMARKS: Dopamine D4 receptor binding test ([3H] spiperone)
# CONDITION_DETAILS: human D4.2 receptor in CHO cell membrane; [3H] spiperone 0.5 nM; 2 hours at 27° C., pH 7.4
pIC50: −log10 of the molar value. Counter-ions that a name gives are not always drawn.
PROPERTY_MEASURED: pIC50

COMPOUND	TEST_SYSTEM	pIC50
Cc1ccc(C=C2CCN(CCc3sc(C(N)=O)nc3-c3ccc(F)cc3)CC2)cc1	human D4.2 receptor (Homo sapiens, UniProt P21917, DEL265-296)	7.74
NC(=O)c1nc(-c2ccccc2)c(CCN2CCC(=Cc3ccc(F)cc3)CC2)s1	human D4.2 receptor (Homo sapiens, UniProt P21917, DEL265-296)	8.22
O=C(O)c1nc(-c2ccc(F)cc2)c(CCN2CCC(=Cc3cccc(F)c3)CC2)s1 [Compound A-11, potassium salt]	human D4.2 receptor (Homo sapiens, UniProt P21917, DEL265-296)	7.98
NC(=O)c1nc(-c2ccc(F)cc2)c(CCN2CCC(=Cc3ccc(F)cc3)CC2)s1	human D4.2 receptor (Homo sapiens, UniProt P21917, DEL265-296)	8.26
NC(=O)c1nc(-c2ccc(F)cc2)c(CCN2CCC(=Cc3ccccc3)CC2)s1	human D4.2 receptor (Homo sapiens, UniProt P21917, DEL265-296)	8.50

A = CCOC(=O)c1nc(-c2ccc(F)cc2)c(CCN2CCC(=Cc3cccc(F)c3)CC2)s1 [Compound A-09, hydrochloride]
B = NC(=O)c1nc(-c2ccc(F)cc2)c(CCN2CCC(=Cc3cccc(F)c3)CC2)s1
Prompt: In terms of reported pIC50, does A or B have the smaller number? To answer, give the label that identifies your chosen option.
Completion: A

A = Cc1ccc(-c2nc(C(N)=O)sc2CCN2CCC(=Cc3ccc(F)cc3)CC2)cc1
B = CCOC(=O)c1nc(-c2ccc(F)cc2)c(CCN2CCC(C(=O)c3ccc(F)cc3)CC2)s1
Prompt: In terms of reported pIC50, does A or B have the smaller number? To answer, give the label that identifies your chosen option.
Completion: A
(A: 8.02, B: 8.46)

Data origin: patent US6166033A
